experiment: Compound cytotoxicity, XTT-based colorimetric assay; type: cell-based; settings: human, uninfected MT2 cells, Table 1a, day 4, XTT

MOLECULE	CC50 at 4 days
CC(C)n1nc(NS(C)(=O)=O)c2c(Cl)ccc(-n3c(C(Cc4cc(F)cc(F)c4)NC(=O)Cn4nc(C(F)F)c5c4C(F)(F)[C@@H]4C[C@H]54)nc4ncccc4c3=O)c21 (mixture of isomers)	> 10 µM
Cn1nc(NS(C)(=O)=O)c2c(Cl)ccc(-n3c([C@H](Cc4cc(F)cc(F)c4)NC(=O)Cn4nc(C(F)(F)F)c5c4CCC5)nc4ncccc4c3=O)c21	> 1 µM
CS(=O)(=O)Nc1nn(CC(F)(F)F)c2c(-c3cc4[nH]ncc4nc3[C@H](Cc3cc(F)cc(F)c3)NC(=O)Cn3nc(C(F)F)c4c3C(F)(F)[C@@H]3C[C@H]43)ccc(Cl)c12 (single isomer, unassigned)	> 1 µM

====

test: Compound cytotoxicity, XTT-based colorimetric assay; assay type: cell-based; settings: human, uninfected MT2 cells, Table 1a, day 4, XTT

MOLECULE	CC50 at 4 days
Cn1ccc2nc(C(Cc3cc(F)cc(F)c3)NC(=O)Cn3nc(C(F)F)c4c3C(F)(F)[C@@H]3C[C@H]43)c(-c3ccc(Cl)c4c(NS(C)(=O)=O)nn(C)c34)cc21 (single isomer, unassigned)	> 10 µM
Cn1ccc2nc([C@@H](Cc3cc(F)cc(F)c3)NC(=O)Cn3nc(C(F)F)c4c3C(F)(F)[C@@H]3C[C@H]43)c(-c3ccc(Cl)c4c(NS(C)(=O)=O)nn(C)c34)cc21 (single isomer, unassigned)	> 10 µM
COc1c(F)ccc2c(=O)n(-c3ccc(Cl)c4c(NS(C)(=O)=O)nn(C)c34)c([C@H](Cc3cc(F)cc(F)c3)NC(=O)Cn3nc(C(F)F)c4c3C(F)(F)[C@@H]3C[C@H]43)nc12 (single isomer, unassigned)	> 1 µM
COc1ccc2c(=O)n(-c3ccc(Cl)c4c(NS(C)(=O)=O)nn(CC(F)F)c34)c(C(Cc3cc(F)cc(F)c3)NC(=O)Cn3nc(C(F)F)c4c3C(F)(F)[C@@H]3C[C@H]43)nc2n1 (single isomer, unassigned)	> 1 µM
Cn1nc(NS(C)(=O)=O)c2c(Cl)ccc(-n3c(C(Cc4cc(F)cc(F)c4)NC(=O)Cn4nc(C(F)F)c5c4C(F)(F)[C@@H]4C[C@H]54)nc4c(F)cc(F)cc4c3=O)c21 (stereo partly drawn)	> 1 µM
Cc1ccc(C)c2c(=O)n(-c3ccc(Cl)c4c(NS(C)(=O)=O)nn(C)c34)c([C@H](Cc3cc(F)cc(F)c3)NC(=O)Cn3nc(C(F)F)c4c3C(F)(F)[C@@H]3C[C@H]43)nc12 (single isomer, unassigned)	> 1 µM
Cn1nc(NS(C)(=O)=O)c2c(Cl)ccc(-n3c([C@H](Cc4cc(F)cc(F)c4)NC(=O)Cn4nc(C(F)F)c5c4CCC5)nc4ncccc4c3=O)c21 (single isomer, unassigned)	> 1 µM
Cn1nc(NS(C)(=O)=O)c2c(Cl)ccc(-c3nc4ccccc4nc3[C@@H](Cc3cc(F)cc(F)c3)NC(=O)Cn3nc(C(F)F)c4c3C(F)(F)[C@@H]3C[C@H]43)c21	> 10 µM
O=C(Cn1nc(C(F)F)c2c1C(F)(F)[C@@H]1C[C@H]21)N[C@@H](Cc1cc(F)cc(F)c1)c1nc2cc[nH]c2cc1-c1ccc(S(=O)(=O)N2CCOCC2)cc1	2 µM
